Quick reference for GI50 among some molecules
test system: NCI/ADR-RES (Ovarian cancer); test: NCI-60 screen (SRB, 48 h); conditions: Homo sapiens

MOLECULE	GI50, µM
C=C(C)[C@@H]1CC[C@]2(COS(=O)(=O)c3ccc(C)cc3)CC[C@]3(C)[C@@H](CC[C@@H]4[C@@]5(C)CCCNC(C)(C)[C@@H]5CC[C@]43C)[C@@H]12	1.74
C=C(C)[C@@H]1CC[C@]2(C)[C@H](C=CC3=C4C[C@@](C)(CO)CC[C@]4(C)CC[C@]32C)[C@@]1(C)CCCN	1.74
C=C(C)C1CCC2(CO)CCC3(C)C(CCC4C5(C)CCCNC(C)(C)C5CCC43C)C12 (centres unmarked)	1.63
C=C(C)[C@@H]1CC[C@]2(C(=O)N[C@H](CO)Cc3ccccc3)CC[C@]3(C)[C@H](CC[C@@H]4[C@@]5(C)CCCNC(C)(C)[C@@H]5CC[C@]43C)[C@@H]12	1.35
C[C@H]1[C@H](C)CC[C@]2(CO)CC[C@]3(C)C(=CC[C@@H]4[C@@]5(C)CCCNC(C)(C)[C@@H]5CC[C@]43C)[C@H]12	1.76
Cc1ccc(S(=O)(=O)OC[C@@]2(C)CC[C@]3(C)CC[C@]4(C)C(=C3C2)C=C[C@@H]2[C@@]3(C)CCCNC(C)(C)[C@@H]3CC[C@]24C)cc1	2.05
CC1(C)CC[C@]2(CO)CC[C@]3(C)C(=CC[C@@H]4[C@@]5(C)CCCNC(C)(C)[C@@H]5CC[C@]43C)[C@@H]2C1	10.2
C=C(C)[C@@H]1CCC=C2CC[C@]3(C)[C@H](CC[C@@H]4[C@@]5(C)CCCNC(C)(C)[C@@H]5CC[C@]43C)[C@H]21	1.98
CC1(C)CC[C@]23CC[C@]4(C)[C@H](CC[C@@H]5[C@@]6(C)CCCNC(C)(C)[C@@H]6CC[C@]54C)[C@H]2[C@H]1OC3	1.78
CC1(C)NCCC[C@]2(C)[C@H]3C=CC4=C5C[C@@](C)(CO)CC[C@]5(C)CC[C@@]4(C)[C@]3(C)CC[C@@H]12	2.02
Cc1ccc(S(=O)(=O)OC[C@]23CCC(C)(C)C[C@H]2C2=CC[C@@H]4[C@@]5(C)CCCNC(C)(C)[C@@H]5CC[C@@]4(C)[C@]2(C)CC3)cc1	1.89

* * *

test system: SNB-19 (CNS cancer); assay: NCI-60 screen (SRB, 48 h); settings: Homo sapiens, SNB-19, 48 h, read-out: TGI
Quick reference for IC (TGI) among some compounds

SMILES_STR	TARGET	IC (TGI) / µM
C[C@H]1[C@H](C)CC[C@]2(CO)CC[C@]3(C)C(=CC[C@@H]4[C@@]5(C)CCCNC(C)(C)[C@@H]5CC[C@]43C)[C@H]12	SNB-19 (CNS cancer)	3.43
CC1(C)CC[C@]23CC[C@]4(C)[C@H](CC[C@@H]5[C@@]6(C)CCCNC(C)(C)[C@@H]6CC[C@]54C)[C@H]2[C@H]1OC3	SNB-19 (CNS cancer)	3.35
CC(C)=C1CCC=C2CC[C@]3(C)[C@H](CC[C@@H]4[C@@]5(C)CCCNC(C)(C)[C@@H]5CC[C@]43C)[C@H]21	SNB-19 (CNS cancer)	3.36
